methodSummary: Pharmacokinetics in cynomolgus monkeys
Format: in vivo
assayContext: male, cynomolgus monkey, plasma, iv, I.V. (1 mg/kg)
endpointName: C0 (ng/mL)

{"compound": "CCc1nn2cc(F)c(N3CCN(CC(=O)N4CC(O)C4)CC3)cc2c1N(C)c1nc(-c2ccc(F)cc2)c(C#N)s1", "units": "ng/mL", "C0": 1220}

A: CCn1nc2ncc(N3CC4(CN(C(=O)C5CCOCC5)C4)C3)cc2c1N(C)c1nc(-c2ccc(F)cc2)c(C#N)s1
B: CCc1nc2c(C)cc(N3CCN(CC(=O)N4CC(O)C4)CC3)cn2c1N(C)c1nc(-c2ccc(F)cc2)c(C#N)s1
Between the entries labeled A and B , whose measured C0 is lower? Mark your answer with the label of the selected entry.
A
(A: 993 ng/mL, B: 4210 ng/mL)

###

assayedSystem: Autotaxin (Rattus norvegicus, UniProt Q64610)
Construct: from tissue; host or cells: SD rats in vivo; plasma sampled after a single oral dose
methodSummary: Pharmacodynamics: LPA 18:2 inhibition in plasma of SD rats after oral dose
assayContext: single oral dose, LPA18:2 inhibition vs plasma concentration of compound, read-out: In vivo rat IC50 (LPA 18:2) (converted)
endpointName: IC50 (µM)

Recorded results for 6 compounds are shown here.
{"compound": "CCc1nn2cc(F)c(N3CC4(CN(C(=O)[C@H]5CCOC5)C4)C3)cc2c1N(C)c1nc(-c2ccc(F)cc2)c(C#N)s1 [Example 102]", "units": "µM", "numericValue": 0.00885}
{"compound": "CCc1nn2cc(F)c(N3CC4(CN(C(=O)C5CCN(C)CC5)C4)C3)cc2c1N(C)c1nc(-c2ccc(F)cc2)c(C#N)s1 [Example 106]", "units": "µM", "numericValue": 0.0192}
{"compound": "CCn1nc2nc(C)c(N3CCN(CC(=O)N4CC(O)C4)CC3)cc2c1N(C)c1nc(-c2ccc(F)cc2)c(C#N)s1 [Compound 119]", "units": "µM", "numericValue": 0.0186}
{"compound": "CN(c1nc(-c2ccc(F)cc2)c(C#N)s1)c1c(C2CC2)nn2cc(F)c(N3CCN(CC(=O)N4CC(O)C4)CC3)cc12 [Compound 113]", "units": "µM", "numericValue": 0.0148}
{"compound": "CCn1nc2nc(C)c(N3CC4(CN(C(=O)C5CCOCC5)C4)C3)cc2c1N(C)c1nc(-c2ccc(F)cc2)c(C#N)s1 [Compound 122]", "units": "µM", "numericValue": 0.0268}
{"compound": "CN(c1nc(-c2ccc(F)cc2)c(C#N)s1)c1c(C2CC2)nn2cc(F)c(N3CC4(CN(C(=O)[C@H]5CCOC5)C4)C3)cc12 [Compound 114]", "units": "µM", "numericValue": 0.016}

I: CCc1nn2cc(C)c(N3CC4(CN(C(=O)[C@H]5CCOC5)C4)C3)cc2c1N(C)c1nc(-c2ccc(F)cc2)c(C#N)s1 [Example 97]
II: CCc1nn2cc(F)c(N3CC4(CN(C(=O)C5(O)CCOCC5)C4)C3)cc2c1N(C)c1nc(-c2ccc(F)cc2)c(C#N)s1 [Example 112]
III: CCc1nn2cc(F)c(N3CCN(CC(=O)N4CC(O)C4)CC3)cc2c1N(C)c1nc(-c2ccc(F)cc2)c(C#N)s1 [Example 101]
IV: CCn1nc2ncc(N3CC4(CN(C(=O)C5CCOCC5)C4)C3)cc2c1N(C)c1nc(-c2ccc(F)cc2)c(C#N)s1 [Compound 118]
V: CCn1nc2ncc(N3CC4(CN(C(=O)[C@H]5CCOC5)C4)C3)cc2c1N(C)c1nc(-c2ccc(F)cc2)c(C#N)s1 [Compound 117]
Rank descending by IC50. Reply: labels, ordered per the request.
V, II, I, IV, III

###

methodSummary: Pharmacokinetics in beagle dogs
Type: in vivo
assayContext: male, dog, plasma, po, P.O. (1 mg/kg)
endpointName: Cmax (ng/mL)

a: CCn1nc2ncc(N3CC4(CN(C(=O)C5CCOCC5)C4)C3)cc2c1N(C)c1nc(-c2ccc(F)cc2)c(C#N)s1
b: CCc1nn2cc(F)c(N3CCN(CC(=O)N4CC(O)C4)CC3)cc2c1N(C)c1nc(-c2ccc(F)cc2)c(C#N)s1
Pick one: a or b . Which has the bigger Cmax number? I would appreciate it if you answered with the label of your choice.
b

a: CCc1nc2c(C)cc(N3CCN(CC(=O)N4CC(O)C4)CC3)cn2c1N(C)c1nc(-c2ccc(F)cc2)c(C#N)s1
b: CCc1nn2cc(F)c(N3CC4(CN(C(=O)[C@H]5CCOC5)C4)C3)cc2c1N(C)c1nc(-c2ccc(F)cc2)c(C#N)s1
When the recorded Cmax values are compared, which is smaller: that of a or that of b ? Pick one; state its label.
b

###

assayedSystem: Autotaxin (Homo sapiens)
Construct: from tissue; host or cells: pooled human plasma
methodSummary: LPA formation in pooled human plasma (ex vivo autotaxin inhibition)
Type: biochemical
assayContext: 2 hours incubation, LPA 20:4 by LC/MS/MS, read-out: LPA formation (20:4) (IC50)
Description: Autotaxin is a plasma phosphodiesterase that converts lysophosphatidylcholine (LPC) into lysophosphatidic acid (LPA), therefore LPA formation was used to evaluate the potency of autotaxin inhibitors. The potency of compound was evaluated ex vivo in pooled human plasma. Various concentrations of compound were incubated with plasma for 2 hours, and the LPA 18:2 and 20:4 concentration was measured by LC/MS/MS. […]
pIC50: −log10 of the molar value.
endpointName: pIC50

Use these answered entries as a reference point.
{"compound": "CCc1nn2cc(C)c(N3CC4(CN(C(=O)C(O)CO)C4)C3)cc2c1N(C)c1nc(-c2ccc(F)cc2)c(C#N)s1 (stereo not shown)", "pIC50": "≥ 7.00"}
{"compound": "CCc1nn2cc(F)c(N3CC4(CN(C(=O)N5CC(O)C5)C4)C3)cc2c1N(C)c1nc(-c2ccc(F)cc2)c(C#N)s1", "pIC50": "≥ 7.00"}
{"compound": "CCc1nn2ccc(N3CCC4(CN(C(=O)N5CC(O)C5)C4)C3)cc2c1N(C)c1nc(-c2ccc(F)cc2)c(C#N)s1", "pIC50": "≥ 7.00"}
{"compound": "CCc1nn2c(C)cc(N3CCC4(CN(C[C@H](O)CO)C4)C3)cc2c1N(C)c1nc(-c2ccc(F)cc2)c(C#N)s1", "pIC50": "6.30 to 7.00"}

Record request: pIC50 value, item CCc1nn2cc(F)c(N3CC4(CN(C(=O)N5CCN(C)CC5)C4)C3)cc2c1N(C)c1nc(-c2ccc(F)cc2)c(C#N)s1
≥ 7.00

Now the compound CCc1nn2c(C)cc(N3CC4(CN(C(=O)[C@H]5COC[C@@H]5O)C4)C3)cc2c1N(C)c1nc(-c2ccc(F)cc2)c(C#N)s1 (stereo in doubt)
6.30 to 7.00

Cool, now CCc1nn2ccc(N3CCN(CC(=O)N(C)C)CC3)cc2c1N(C)c1nc(-c2ccc(F)cc2)c(C#N)s1
≥ 7.00

###

assayedSystem: Autotaxin (Homo sapiens, UniProt Q13822)
Construct: from tissue; host or cells: pooled human plasma
methodSummary: LPA formation in pooled human plasma (ex vivo autotaxin inhibition)
Assay type: biochemical
assayContext: 2 hours incubation, LPA 20:4 by LC/MS/MS, read-out: LPA formation (20:4) (IC50)
Each entry below carries its recorded IC50.

{"molecule": "CCc1nn2ccc(N3CC4(CN(C(=O)[C@H]5CCOC5)C4)C3)cc2c1N(C)c1nc(-c2ccc(F)cc2)c(C#N)s1 [Example 10]", "IC50": "≤ 100 nM"}
{"molecule": "CCn1nc2ncc(N3CC4(CN(C(=O)[C@H]5CCOC5)C4)C3)cc2c1N(C)c1nc(-c2ccc(F)cc2)c(C#N)s1 [Compound 117]", "IC50": "≤ 100 nM"}
{"molecule": "CCc1nn2c(C)cc(N3CC4(CN(C(=O)[C@H](O)CO)C4)C3)cc2c1N(C)c1nc(-c2ccc(F)cc2)c(C#N)s1 (single isomer, unassigned) [Example 75]", "IC50": "100 to 500 nM"}

Field request: IC50 | item: CCc1nn2c(C)cc(N3CC4(CN(C(=O)C5CCN(C)CC5)C4)C3)cc2c1N(C)c1nc(-c2ccc(F)cc2)c(C#N)s1 [Example 33]
100 to 500 nM

Moving on to the next molecule: CCc1nn2c(C)cc(N3CC4(CN(C(=O)[C@H]5CCOC5)C4)C3)cc2c1N(C)c1nc(-c2ccc(F)cc2)c(C#N)s1 [Example 39]
≤ 100 nM

Follow-up item: CCc1nn2c(C)cc(N3CC4(CN(C(=O)[C@@H](O)CO)C4)C3)cc2c1N(C)c1nc(-c2ccc(F)cc2)c(C#N)s1 (single isomer, unassigned) [Example 76]
100 to 500 nM

What would you report for CCc1nn2c(C)cc(N3CC4(CN(C(=O)C(O)CO)C4)C3)cc2c1N(C)c1nc(-c2ccc(F)cc2)c(C#N)s1 (stereo not shown) [Example 60] ?
100 to 500 nM

Consider next the molecule CCc1nn2c(C)cc(N3CC4(CN(C(=O)[C@@H](C)O)C4)C3)cc2c1N(C)c1nc(-c2ccc(F)cc2)c(C#N)s1 [Example 63] in the same way.
100 to 500 nM

Repeat with CN(c1nc(-c2ccc(F)cc2)c(C#N)s1)c1c(C2CC2)nn2ccc(N3CCN(CC(=O)N4CC(O)C4)CC3)cc12 [Example 21]
≤ 100 nM

Next record, please: CCc1nn2cc(F)c(N3CCC4(CN(C(=O)N5CC(O)C5)C4)C3)cc2c1N(C)c1nc(-c2ccc(F)cc2)c(C#N)s1 [Example 111]
≤ 100 nM

Subsequent entry: CCc1nn2c(C)cc(N3CCC4(CN(C(=O)[C@H]5CCCO5)C4)C3)cc2c1N(C)c1nc(-c2ccc(F)cc2)c(C#N)s1 [Example 49]
≤ 100 nM

Lookup CCc1nn2c(C)cc(N3CC4(CN(C(=O)c5ccco5)C4)C3)cc2c1N(C)c1nc(-c2ccc(F)cc2)c(C#N)s1 [Example 66]
≤ 100 nM

Next molecule up: CCc1nn2ccc(N3CC4(CN(C(=O)[C@@H]5CCOC5)C4)C3)cc2c1N(C)c1nc(-c2ccc(F)cc2)c(C#N)s1 [Example 9]
100 to 500 nM
